Assay read-out IC50 on 3-oxo-5-alpha-steroid 4-dehydrogenase 1 (Rattus norvegicus, UniProt P24008); records merged from the literature.
# assayed system: 3-oxo-5-alpha-steroid 4-dehydrogenase 1 (Rattus norvegicus, UniProt P24008)
# Sequence (P24008 whole entry): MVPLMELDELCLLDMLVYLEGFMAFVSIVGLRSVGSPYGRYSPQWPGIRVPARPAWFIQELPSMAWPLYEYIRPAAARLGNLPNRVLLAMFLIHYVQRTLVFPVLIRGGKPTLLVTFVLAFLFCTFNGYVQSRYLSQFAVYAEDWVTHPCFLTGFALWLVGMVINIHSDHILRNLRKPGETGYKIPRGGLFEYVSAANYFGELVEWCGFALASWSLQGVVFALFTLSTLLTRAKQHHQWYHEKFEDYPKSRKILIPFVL
# number only, unit nM dropped from output

- compound: "Cc1cc(CC(=O)O)ccc1C(=O)c1ccc(Oc2ccccc2)cc1"
  IC50 [nM]: 1450
- compound: "CCN(CCCCNC(=O)[C@H]1CCC2C3CCC4NC(=O)C=C[C@]4(C)C3CC[C@@]21C)c1ccc2c(=O)[nH][nH]c(=O)c2c1 (stereo partly drawn)"
  IC50 [nM]: 500

Query compound follows.
Summary line: C#C[C@]1(O)CC[C@H]2[C@@H]3CCc4cc(O)ccc4[C@H]3CC[C@@]21C , 3-oxo-5-alpha-steroid 4-dehydrogenase 1 (Rattus norvegicus, UniProt P24008), reported IC50 = 960000
